assay: qHTS assay to identify small molecule antagonists of the estrogen receptor beta (ER-beta) signaling pathway - cell viability counter screen (AID 1259382); settings: ER-beta-UAS-bla HEK293T viability, CellTiter-Glo luminescence, 16 h; series mostly up to 92.4 µM; note: nearly all actives have a fitted effect of over 55% in size; note: potency is the fitted concentration of half-maximal effect
Inconclusive results are not listed. Calls of active or inactive are those of the source. Calls come from the whole dose curve; as a rule, active = well fitted cell-killing curve with a large enough effect in the repeat runs; inconclusive = weak or mixed curves; inactive = flat fitted curve, though single readings scatter.
TEST_READOUT: Potency

Please review the entries below; each comes with its answer.
| MOLECULE | VALUE_MEASURED |
| --- | --- |
| O=C(OCC1CO1)C1CCCCC1C(=O)OCC1CO1 (stereo not given) | inactive |
| Oc1ccc(Cl)cc1Sc1cc(Cl)ccc1O | 48.5 µM (active) |
| Cc1cc(C2CCCCC2)n(O)c(=O)c1 | inactive |
| Oc1c(Cl)cc(Cl)c2cccnc12 | 11.9 µM (active) |

Please find the next molecule below.
Req: Give the value of Potency reported for the following: NNC(=O)c1cccc(C(=O)NN)c1
Resp: inactive

* * *

biological target: Aromatase (Homo sapiens); assay: qHTS assay to identify aromatase inhibitors (AID 743083); settings: MCF-7 aro ERE, testosterone-driven ERE luciferase, 24 h; series mostly up to 70.3 µM; note: nearly all actives have a fitted effect of over 55% in size
Records with an inconclusive call do not appear. Active and inactive are the calls of the source. Calls follow the shape of the dose curve; as a rule, active = well fitted inhibition curve with a large enough effect in the repeat runs; inconclusive = weak or mixed curves; inactive = no such curve, though single readings can be large or run the other way.
Could you please pick one outcome from this set? active, inactive

Examples with answers:
| MOLECULE | CLASS |
| --- | --- |
| Cc1cc(O)c(C(C)(C)C)cc1Sc1cc(C(C)(C)C)c(O)cc1C | active |
| Cc1cc(CCN2CCN(c3nsc4ccccc34)CC2)cc2c1NC(=O)CC2(C)C | active |
| Nc1c(Cl)cc(Cl)cc1Cl | inactive |
| COc1cc(/C=C/C(=O)O[C@H]2CC[C@]34C[C@]35CC[C@]3(C)[C@@H]([C@H](C)CCC=C(C)C)CC[C@@]3(C)[C@@H]5CC[C@H]4C2(C)C)ccc1O | inactive |
| CC1=NC(C)OC1C (configuration not stated) | inactive |
| N/C(=N\N=C\c1ccc(Cl)cc1)N/N=C/c1ccc(Cl)cc1 | inactive |

Req: What classification did CCC(C)Nc1ccc(NC(C)CC)cc1 (configuration not stated) end up with in this test?
Resp: active

Req: For S=c1[nH]c2ccccc2s1 , which call appears in the assay record?
Resp: inactive

Req: Field: outcome | Entry: c1cc(C(c2ccc(OCC3CO3)cc2)c2ccc(OCC3CO3)cc2)ccc1OCC1CO1 (configuration not stated)
Resp: active

Req: How did this test come out for N#CSc1ccc(N)c([N+](=O)[O-])c1 ?
Resp: active

Req: Dear colleague, could you share the recorded outcome for Cc1c(C)c2c(c(C)c1OC(=O)CCC(=O)O)CC[C@@](C)(CCC[C@H](C)CCC[C@H](C)CCCC(C)C)O2 when you have a moment?
Resp: inactive

Req: Could you check what this test reported for Nc1ccccc1O ?
Resp: active

* * *

assay: qHTS assay to identify small molecule agonists of the AP-1 signaling pathway - cell viability counter screen (AID 1159525); conditions: ME-180 (cervical carcinoma) AP-1-bla cells viability, ATP luminescence, 5 h; series mostly up to 76.8 µM; note: nearly all actives have a fitted effect of over 55% in size
Inconclusive results are not listed. The source made the active and inactive calls. Calls follow the shape of the full dose curve.
Classes to choose from: 1 (yes) for active, 0 (no) for inactive

| MOLECULE | CLASS |
| --- | --- |
| CCCCN(CCCC)c1ccc(C(=O)c2ccccc2C(=O)O)c(O)c1 | 0 (no) |
| CCCCCCCCOc1ccccc1C(=O)Nc1ccc(C(=O)OCC[N+](C)(CC)CC)cc1 | 1 (yes) |

Req: Call for entry CC1=C(/C=C/C(C)=C/C=C/C(C)=C/C=O)C(C)(C)CCC1 :
Resp: 1 (yes)

Req: Call for entry CCCCCCCCCCCCCCCC[N+](C)(C)CCN(Cc1ccc(OC)cc1)c1ncccn1 :
Resp: 1 (yes)

Req: Call for entry N=C1N=C(N)c2ccccc21 :
Resp: 0 (no)

Req: Which outcome was assigned to C=CC(=O)OCC(CO)(COCC(COC(=O)C=C)(COC(=O)C=C)COC(=O)C=C)COC(=O)C=C in this test?
Resp: 1 (yes)

Req: Given CCCCCCCC(=O)[O-].CCCCCCCC(=O)[O-].[Zn+2] , state the outcome it received in this test.
Resp: 0 (no)
